B1: Transcription elongation factor A N-terminal and central domain-containing protein, residues 30 to 77; numbered along this chain, Q8N8B7 (parent)
chain: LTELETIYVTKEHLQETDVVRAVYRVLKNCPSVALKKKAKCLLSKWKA

variants of: B1; assay: abundance fitness (aPCA) (normalised: wild type 0, dead -1); higher = more abundant; growth selection in yeast, the domain comes from the species named; settings: Homo sapiens
OBSERVATION_TYPE: abundance fitness

INSERT INTO measurements (mutant_id, recorded_number) VALUES
  ('T2I', -0.369),
  ('K45D', -0.443),
  ('V19P', -0.261),
  ('I7A', 0.131),
  ('L4M', 0.022),
  ('L1Y', -0.521),
  ('V20F', 0.071),
  ('I7V', 0.006),
  ('L14D', 0.184),
  ('R21V', -0.904),
  ('S32P', 0.039),
  ('D18K', -0.136),
  ('V23G', -0.72),
  ('C41E', 0.019),
  ('E3M', -0.045),
  ('K47P', -0.334),
  ('T10R', -0.041),
  ('D18V', -0.094),
  ('N29R', 0.144),
  ('V20G', -0.109),
  ('A48L', -1.22),
  ('T6G', -0.024),
  ('W46D', -1.05),
  ('K45T', -0.656),
  ('T6K', -0.059),
  ('E12R', -0.24),
  ('A22I', -0.419),
  ('W46T', -0.705),
  ('T10M', -0.143),
  ('L42H', -1.02),
  ('A22P', -0.143),
  ('D18Y', 0.057),
  ('K45V', -0.918),
  ('V19Y', -0.595),
  ('E16I', -0.28),
  ('C30S', -0.514),
  ('T10I', -0.657),
  ('T17K', -0.14),
  ('C30L', 0.075),
  ('H13I', -0.668),
  ('L27R', -0.848),
  ('C30E', -0.935),
  ('K36E', -1.32),
  ('D18P', -0.154),
  ('V33A', -0.016),
  ('Q15S', -0.208);
